Provenance of the data: patent US20240360157A1

biological target: human JAK2 catalytic kinase (JH1) domain (Homo sapiens (Human), UniProt O60674); test: ADP-Glo Kinase Assay, recombinant JAK2 catalytic kinase (JH1) domain; format: biochemical; conditions: recombinant JH1 domain 0.2 nM, 15 μM ATP, JAK3-974 peptide, mean, read-out: JAK2 biochem IC50 (nM) Mean
Sequence (O60674 849-1124): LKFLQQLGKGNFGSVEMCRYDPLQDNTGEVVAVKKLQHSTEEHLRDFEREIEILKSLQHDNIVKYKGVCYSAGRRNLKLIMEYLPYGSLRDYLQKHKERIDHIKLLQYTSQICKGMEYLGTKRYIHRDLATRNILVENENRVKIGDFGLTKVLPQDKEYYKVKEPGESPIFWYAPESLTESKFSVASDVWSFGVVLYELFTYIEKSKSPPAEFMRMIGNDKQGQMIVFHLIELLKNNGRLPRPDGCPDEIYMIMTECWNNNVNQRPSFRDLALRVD
Counter-ions that a name gives are not always drawn.
param class (str): category from IC50; see ranges range 1 (below 200 nM), range 2 (200 nM to below 4000 nM), range 3 (4000 nM or more)

Consider the worked cases shown below.
[[record]]
compound = "O=C([C@H]1C[C@@H]1CO)N1C2CCC1CN(c1ncnn3cc(-c4cnn(C(F)F)c4)cc13)C2 (single isomer, unassigned) [Example 39]"
answerlabel = "range 3"

[[record]]
compound = "Cn1ncc(-c2cc3c(N4CC5CCC(C4)N5C(=O)[C@@H]4C[C@H]4F)ccnn3c2)c1F [Example 121]"
answerlabel = "range 1"

[[record]]
compound = "O=C(C1C(F)(F)C12CC2)N1C2CCC1CN(c1ncnn3cc(-c4cnn(C(F)F)c4)cc13)C2 (stereo not drawn)"
answerlabel = "range 3"

[[record]]
compound = "Cn1cc(-c2cn3nccc(N4CC5CCC(C4)N5C(=O)[C@@H]4C[C@H]4F)c3n2)cn1"
answerlabel = "range 1"

[[record]]
compound = "O=C([C@@H]1C[C@H]1F)N1C2CCC1CN(c1ccnn3cc([C@@H]4CC4(F)F)cc13)C2 (single isomer, unassigned)"
answerlabel = "range 3"


For this compound, which bin applies? "Cc1ccc(-c2cc3c(N4CC5CCC(C4)N5C(=O)[C@@H]4C[C@H]4F)ccnn3c2)cn1"
range 1

For this compound, which bin applies? N#CC1(C(=O)N2C3CCC2CN(c2ncnn4cc(-c5cnn(C(F)F)c5)cc24)C3)CC1 [Example 30, trifluoroacetate]
range 2

For this compound, which bin applies? "O=C(N1C2CCC1CN(c1ncnn3cc(-c4cnn(C(F)F)c4)cc13)C2)C1(F)CC1"
range 3

----------
target: human JAK3 catalytic kinase (JH1) domain (Homo sapiens (Human), UniProt P52333); experiment: ADP-Glo Kinase Assay, recombinant JAK3 catalytic kinase (JH1) domain; type: biochemical; conditions: recombinant JH1 domain 0.3 nM, 4 μM ATP, JAK3-974 peptide, mean, read-out: JAK3 biochem IC50 (nM) Mean
Sequence (P52333 822-1111): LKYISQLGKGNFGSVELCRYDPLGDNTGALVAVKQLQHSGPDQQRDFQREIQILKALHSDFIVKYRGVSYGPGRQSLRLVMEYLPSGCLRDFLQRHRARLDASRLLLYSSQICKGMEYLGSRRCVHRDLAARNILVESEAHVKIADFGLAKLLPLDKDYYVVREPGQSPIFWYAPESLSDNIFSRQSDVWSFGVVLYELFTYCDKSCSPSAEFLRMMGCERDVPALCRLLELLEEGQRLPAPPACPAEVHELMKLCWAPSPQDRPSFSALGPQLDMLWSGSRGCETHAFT
param class (str): category from IC50; see ranges bucket A (below 900 nM), bucket B (900 nM to below 5000 nM), bucket C (5000 nM or more)

Consider the worked cases shown below.
[[record]]
compound = "N#C[C@H]1C[C@@H]1C(=O)N1C2CCC1CN(c1ncnn3cc(-c4cnn(C(F)F)c4)cc13)C2 (racemic)"
answerlabel = "bucket C"

[[record]]
compound = "N#CC1CC(C(=O)N2C3CCC2CN(c2ncnn4cc(-c5cnn(C(F)F)c5)cc24)C3)C1 (stereo not shown)"
answerlabel = "bucket C"

[[record]]
compound = "CC(C)n1ncc(-c2cc3c(N4CC5CCC(C4)N5C(=O)C4CC4)ncnn3c2)c1F"
answerlabel = "bucket B"

[[record]]
compound = "O=C(C1CC1)N1C2CCC1CN(c1ncnn3cc(-c4cccnc4)cc13)C2"
answerlabel = "bucket C"

[[record]]
compound = "CN(C)c1cc(-c2cc3c(N4CC5CCC(C4)N5C(=O)[C@@H]4C[C@H]4F)ccnn3c2)ccn1"
answerlabel = "bucket A"

[[record]]
compound = "Cn1ncc(-c2cc3c(N4CC5CCC(C4)N5C(=O)[C@@H]4C[C@H]4F)ccnn3c2)c1F [Example 121]"
answerlabel = "bucket A"


For this compound, which bin applies? O=C([C@@H]1C[C@H]1F)N1C2CCC1CN(c1ncnn3cc(-c4cnn(C(F)F)c4)cc13)C2 [Example 76]
bucket C
